Reference for the values: paper PMC8358123

Exercise: state measured remaining at 0.5 h for each of the molecules provided.
Experiment: Microsomal stability assay, hamster
Type: in vitro ADME
Conditions: hamster microsomal (S9) fractions, % remaining parent compound, CYP – NADPH (Phase-I), 30 min
Field: numeric (%). Do not append units.

Looking for the measured remaining at 0.5 h of CCc1cn([C@@H]2O[C@H](CO)[C@@H](O)[C@H]2O)c2ncnc(C)c12 [compound 13] , can you help?
102

Looking for the measured remaining at 0.5 h of Cc1ncnc2c1c(Cl)cn2[C@@H]1O[C@H](CO)[C@@H](O)[C@H]1O [compound 7] , can you help?
93

* * *

Test: Microsomal stability assay, hamster
Format: in vitro ADME
Conditions: hamster microsomal (S9) fractions, % remaining parent compound, UGT Enz. (Phase-II), 0 min
PROPERTY_NAME: remaining at 0 h (%)
Field: numeric (%). Do not append units.

Looking for the measured remaining at 0 h of CCc1cn([C@@H]2O[C@H](CO)[C@@H](O)[C@H]2O)c2ncnc(C)c12 , can you help?
100

Looking for the measured remaining at 0 h of Cc1ncnc2c1c(Cl)cn2[C@@H]1O[C@H](CO)[C@@H](O)[C@H]1O , can you help?
100
